Listed next: entries and their corresponding Kd.
biological target: Q98I; assay: SPR; 25 C

BINDER: GDF11 (ligand) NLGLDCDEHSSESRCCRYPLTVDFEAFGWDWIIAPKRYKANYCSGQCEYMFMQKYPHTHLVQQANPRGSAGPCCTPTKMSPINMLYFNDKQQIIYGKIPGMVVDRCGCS
Kd: 0.049 nM

BINDER: BMP10 (ligand) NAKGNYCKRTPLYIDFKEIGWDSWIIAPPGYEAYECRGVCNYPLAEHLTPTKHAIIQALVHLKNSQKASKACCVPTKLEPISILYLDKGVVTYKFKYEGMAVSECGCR
Kd: 0.21 nM

BINDER: BMP9 (ligand) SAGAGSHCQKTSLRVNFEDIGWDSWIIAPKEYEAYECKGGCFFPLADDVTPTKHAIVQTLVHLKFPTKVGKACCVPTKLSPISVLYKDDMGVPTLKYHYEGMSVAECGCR
Kd: 0.059 nM

For the next question, use this binder.
### Prompt Can you look up the measured Kd of Activin A (ligand) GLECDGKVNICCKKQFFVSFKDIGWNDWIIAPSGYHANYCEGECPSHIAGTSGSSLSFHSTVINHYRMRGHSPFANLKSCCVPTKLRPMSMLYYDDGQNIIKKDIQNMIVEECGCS for me?
### Response 0.157 nM
